- Test system: MOLT-4 leukemia
- Measurement description: NCI tumour cell line growth inhibition, 48 h
Measured attribute: TGI

Some compounds with known TGI results, for comparison:
compound=Oc1c2cc(Br)cc1CCc1cc(Br)cc(c1O)CC2 measured_on="MOLT-4 leukemia" measured_attribute=TGI reported_value="> 100 µM"
compound=O=C(Cn1cc(-c2ccccc2)nn1)NC1CCCC1 measured_on="MOLT-4 leukemia" measured_attribute=TGI reported_value="> 100 µM"
compound=COc1ccc(N=c2ssc(C(=S)Nc3ccc(OC)cc3)c2S)cc1 measured_on="MOLT-4 leukemia" measured_attribute=TGI reported_value="> 100 µM"
compound="CCC(C)OC(=O)C1C2CCC(O2)C1C(=O)O (stereo not drawn)" measured_on="MOLT-4 leukemia" measured_attribute=TGI reported_value="> 100 µM"
compound=CC(=O)CCNc1ccc(-c2cc(-c3ccc(N(C)C)cc3)nc3ccc4ccccc4c23)cc1 measured_on="MOLT-4 leukemia" measured_attribute=TGI reported_value="> 100 µM"

response.value for Nc1cc2c3c(cccc3c1)C(=O)N(c1ccc(OCCN3CCCCC3)cc1)C2=O (field: TGI) = 35.7 µM

Input CCOC(=O)C(NC(=O)c1ccccc1)(Nc1ccc(S(=O)(=O)Nc2nc(C)cc(C)n2)cc1)C(F)(F)F (stereo not drawn) . Output TGI: > 100 µM

Data point: COc1cc(/C=C/C(=O)c2ccc(Nc3ncnc4ccccc34)cc2)cc(OC)c1 ; TGI = 17.1 µM

Entry CC[C@@]1(O)C(=O)OCc2c1cc1n(c2=O)Cc2c-1nc1ccc(O)cc1c2CC[Si](C)(C)C , TGI reported as 0.00221 µM

Per the records, this compound ( O=C1c2cccnc2S(=O)N1Cc1ccccc1 (stereo not drawn) ) has TGI equal to > 100 µM

---

- Tested on: CAKI-1 renal
- Measurement description: NCI tumour cell line growth inhibition, 48 h
Measured attribute: TGI

compound=O=S1(=O)OC(c2ccc(O)cc2)(c2ccc(O)cc2)c2ccccc21 measured_attribute=TGI reported_value="> 100 µM"
compound="Cc1ccccc1NC(=O)C(=O)C(c1cnc2ccc([N+](=O)[O-])cc2n1)[N+](=O)[O-] (stereo not drawn)" measured_attribute=TGI reported_value="> 100 µM"

Shifting focus to the compound that follows.
The measured TGI associated with Cn1cccc1-c1cc(-c2cccs2)[nH]c(=O)c1C#N reads > 100 µM

---

- System: HOP-92 NSCLC
- Measurement description: NCI tumour cell line growth inhibition, 48 h
Recorded TGI, one value per entry.

molecule=CC1(C)C=C(/C=N/Nc2ccc([N+](=O)[O-])cc2)C(C#N)=C(O)C1(C#N)C#N measured_on="HOP-92 NSCLC" reported_value="> 100 µM"
molecule="COC(=O)C(=O)C(C(=O)C(=O)Nc1ccc(Cl)cc1C)c1nc2ccc(C(=O)c3ccccc3)cc2[nH]c1=O (configuration not stated)" measured_on="HOP-92 NSCLC" reported_value="> 100 µM"
molecule=COC(=O)[C@@H]1C[C@H]([Se]c2ccccc2)CN1S(=O)(=O)c1ccc(C)cc1 measured_on="HOP-92 NSCLC" reported_value="> 100 µM"

Item CCOC(=O)C(NC(=O)c1ccccc1)(Nc1ccc(S(=O)(=O)Nc2nc(C)cc(C)n2)cc1)C(F)(F)F (configuration not stated) was tested on HOP-92 NSCLC; the reported TGI is > 100 µM

Item: CSC(=NCCCCN=C(NS(=O)(=O)c1ccc(Cl)cc1)SC)NS(=O)(=O)c1ccc(Cl)cc1 | System: HOP-92 NSCLC | TGI: > 100 µM

The reported HOP-92 NSCLC TGI of CCOC(=O)CC(=O)C(=O)NNC1=NCCCN1 is > 100 µM

Record Cc1cc2c(c(C=Nc3ccc([N+](=O)[O-])cc3)c1)OC1(C=C2)Oc2ccccc2C(=O)N1C (configuration not stated) ; system HOP-92 NSCLC; TGI = 50.9 µM

---

# reported TGI; entries follow
- Test system: CCRF-CEM leukemia
- Measurement description: NCI tumour cell line growth inhibition, 48 h
Report the value in µM with no unit label.

Field: example entries. Status: answers known.
smiles_string=CC[C@@]1(O)C(=O)OCc2c1cc1n(c2=O)Cc2c-1nc1ccc(O)cc1c2CC[Si](C)(C)C reported_value=0.464
smiles_string=Oc1c2cc(Br)cc1CCc1cc(Br)cc(c1O)CC2 reported_value=97.5

Reported TGI ( COc1ccc(CNC2=C(NC(C)=O)C(=O)c3ccccc3C2=O)cc1 ) = 24.7

---

- System: COLO 205 colon
- Measurement description: NCI tumour cell line growth inhibition, 48 h
Please note: Met applies when TGI is 40 µM or greater, and Not met applies otherwise.

compound=CC1(C)CC[C@]2(C(=O)O)CC[C@]3(C)C(=CC[C@@H]4[C@@]5(C)C[C@H](O)[C@H](O)[C@@](C)(CO)C5=CC[C@]43C)[C@@H]2C1 answer_label=Met
compound=CCN(CC)CCOc1ccc(/C(=C(\C)Cc2ccc(OC)cc2)c2ccc(OC(=O)NCc3ccccc3)cc2)cc1 answer_label="Not met"
compound=c1cc(OCCN2CCCCCC2)ccc1CNc1ccc2nc(CCC3CCCCC3)[nH]c2c1 answer_label="Not met"
compound="O=C1c2cccnc2S(=O)N1Cc1ccccc1 (configuration not stated)" answer_label=Met
compound="N#CC1=C(S)N(C2OC(CO)C(O)C(O)C2O)C(c2ccccc2)=CC1c1ccccc1 (configuration not stated)" answer_label=Met

## Input Decide: TGI of CCCc1cc2cc(-n3nc(C)c4c3CC(C)(C)CC4=O)cc(NC3CCC(O)CC3)c2c(=O)[nH]1 (configuration not stated) >= 40 µM?
## Output Not met

## Input Quick check: does O=C(NCc1ccccc1)c1cc2cc(O)c(O)cc2cn1 have TGI greater than or equal to 40 µM?
## Output Met

## Input Is the recorded value of TGI equal to or greater than 40 µM for this compound? Cc1cn(C2CC(O)C(Cn3cc(Cn4ncc(=O)[nH]c4=O)nn3)O2)c(=O)[nH]c1=O (configuration not stated)
## Output Met

## Input // inclusive: TGI at least 40 µM? input: Cn1c(=O)c2c(no[n+]2[O-])n(C)c1=O
## Output Met

## Input Identify whether the reported TGI of the following compound is 40 µM or greater: CCOP(=O)(OCC)C1CC(O)CN1OC(=O)C(C)(C)C (configuration not stated)
## Output Met

## Input Would you say O=C(O)C1NCCc2c1[nH]c1ccccc21 (configuration not stated) shows TGI at minimum 40 µM?
## Output Met

---

Let's look at some molecules and their measured TGI.
- System: MDA-N
- Measurement description: NCI tumour cell line growth inhibition, 48 h

These solved cases illustrate the format of a correct answer.
molecule=NCC#CCNCCCN1CC1 measured_on=MDA-N reported_value="> 100 µM"
molecule="OCC1NCC(O)C(O)C1O (stereo not drawn)" measured_on=MDA-N reported_value="> 100 µM"

Read the next record carefully.
Field TGI (entry CCCCCCCCCCCCn1c(=O)cc(NCCCC)c2cc3c(NCCCC)cc(=O)n(CCCCCCCCCCCC)c3nc21 ) reads > 100 µM

---

- Tested on: IGROV1 ovarian
- Measurement description: NCI tumour cell line growth inhibition, 48 h
Measured attribute: TGI

Worked examples, 5 compounds total:
compound=COc1ccc(N(CC(=O)NCCC[Te]c2ccccc2)C(=O)CCSC2=C(C)C(=O)c3ccccc3C2=O)cc1 reported_value="2.35 µM"
compound=CC(=O)CCNc1ccc(-c2cc(-c3ccc(N(C)C)cc3)nc3ccc4ccccc4c23)cc1 reported_value="> 100 µM"
compound=Cc1oc2c(C)c(O)c3c(c2c1C1(C)OCCO1)C(=O)C=C(Cl)C3=O reported_value="> 100 µM"
compound="COc1ccc(NC(=O)C(=O)C2CNC(=O)NC2=O)c(OC)c1 (configuration not stated)" reported_value="> 100 µM"
compound=C#CCOCn1cnc2c(=S)nc[nH]c21 reported_value="> 100 µM"

The compound C#CCN=C(N/N=C/c1ccc([N+](=O)[O-])o1)NS(=O)(=O)c1cc(C)c(Cl)cc1SCC(N)=O showed TGI equal to 27.2 µM

---

- Tested on: UO-31 renal
- Measurement description: NCI tumour cell line growth inhibition, 48 h
Catalogue of compounds with associated TGI

Here are 10 compounds together with their reported answers.
compound=O=[N+]([O-])c1cc(CCl)ccc1CCl measured_on="UO-31 renal" measured_attribute=TGI reported_value="3.18 µM"
compound=O=[n+]1c2c(n([O-])c3ccccc31)-c1cccc3cccc-2c13 measured_on="UO-31 renal" measured_attribute=TGI reported_value="> 100 µM"
compound=O=c1c2cc([N+](=O)[O-])ccc2n(Cc2ccccc2)n1Cc1ccccc1 measured_on="UO-31 renal" measured_attribute=TGI reported_value="27.3 µM"
compound=O=C1OCc2c1cc(F)cc2[N+](=O)[O-] measured_on="UO-31 renal" measured_attribute=TGI reported_value="> 100 µM"
compound="COC(=O)C1Cc2cccc(C)c2C1 (stereo not given)" measured_on="UO-31 renal" measured_attribute=TGI reported_value="> 100 µM"
compound=O=S(=O)(N=S(c1ccc(Cl)cc1)c1ccc(Cl)cc1)c1ccccc1 measured_on="UO-31 renal" measured_attribute=TGI reported_value="> 100 µM"
compound="CC1(C)CCC2(C(=O)OC3OC(CO)C(O)C(O)C3O)CCC3(C)C(=CCC4C5(C)CCC(OC6OC(CO)C(O)C(O)C6O)C(C)(C)C5CCC43C)C2C1 (stereo not given)" measured_on="UO-31 renal" measured_attribute=TGI reported_value="> 25 µM"
compound=COc1cc2ccc3c4c(OC)cc(OC)c(OC)c4c(=O)n(C)c3c2cc1OC measured_on="UO-31 renal" measured_attribute=TGI reported_value="> 48.9 µM"
compound="Nc1ncnc2c1nc(-c1ccccc1)n2C1OC(CO)C(O)C1O (stereo not given)" measured_on="UO-31 renal" measured_attribute=TGI reported_value="> 100 µM"
compound="COc1c2c(cc3c1C(O)N1CC[C@]34[C@H]3O[C@H]3[C@H](OC)C[C@@H]14)OCO2 (stereo not given in full)" measured_on="UO-31 renal" measured_attribute=TGI reported_value="> 100 µM"

The compound CN(C)CCCN(c1nc(C(Cl)(Cl)Cl)ns1)c1nc(C(Cl)(Cl)Cl)ns1 showed TGI equal to 3.08 µM

Lab note: measured TGI of CCOC(=O)c1c(-c2ccccc2)[n+](=O)c2ccc(Cl)cc2n1[O-] was 3.69 µM

The reported value for CCOC(=O)c1ccc(N(CCOS(C)(=O)=O)CCOS(C)(=O)=O)cc1C in terms of TGI is 45.9 µM

# compound CCOC(=O)n1[nH]c(=O)n(-c2ccccc2)c1=O ; its TGI = > 100 µM

The compound listed as COc1ccc(N=c2ssc(C(=S)Nc3ccc(OC)cc3)c2S)cc1 shows TGI equal to > 100 µM

For record COc1[nH]c(C(Cl)(Cl)Cl)c(Cl)c(=O)c1Cl the listed TGI is > 100 µM

Sure, the documented TGI for COc1cc(-c2cc(=O)c3ccccc3o2)ccc1N is > 100 µM

TGI for Cc1cccc(N=Nc2c(C)nn(C(=O)CC(=O)Nc3ccccc3)c2C)c1 is > 100 µM
